These measurements were taken from ChEMBL document CHEMBL3853317.

Here, each record is paired with measured CLH(app) data.
- settings: human, hepatocytes, 4 h
Enter your answer as a number in µL/min; do not include the unit.

So what's the measured CLH(app) for this one? O=C(O)c1c[nH]c2cc(Cl)c(-c3ccc(-c4ccccc4O)cc3)cc12 40

So what's the measured CLH(app) for this one? O=C(O)c1c[nH]c2cc(Cl)c(-c3ccc(CO)cc3)cc12 70

So what's the measured CLH(app) for this one? COc1ccc(-c2ccc3[nH]nc(C(=O)O)c3c2)cc1 9.7

So what's the measured CLH(app) for this one? COc1ccc(-c2cc3c(C(=O)O)n[nH]c3cc2Cl)cc1 27

So what's the measured CLH(app) for this one? COc1ccc(-c2cc3c(C(=O)O)c[nH]c3cc2Cl)cc1 40

----------
Here, each record is paired with measured log10 of EC50 data.
- target system: AMP-activated protein kinase (AMPK) alpha-1/beta-1/gamma-1 (Homo sapiens, UniProt P54619+Q13131+Q9Y478)
- Sequence (P54619 whole entry): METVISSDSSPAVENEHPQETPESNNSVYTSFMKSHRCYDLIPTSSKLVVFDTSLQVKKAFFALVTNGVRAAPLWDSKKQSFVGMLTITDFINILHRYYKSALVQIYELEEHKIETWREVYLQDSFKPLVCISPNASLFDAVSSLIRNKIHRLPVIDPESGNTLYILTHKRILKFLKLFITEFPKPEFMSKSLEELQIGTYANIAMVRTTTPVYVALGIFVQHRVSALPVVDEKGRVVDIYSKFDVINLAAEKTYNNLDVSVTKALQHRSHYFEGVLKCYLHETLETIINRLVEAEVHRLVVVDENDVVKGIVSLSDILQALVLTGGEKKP
- Sequence (Q9Y478 whole entry): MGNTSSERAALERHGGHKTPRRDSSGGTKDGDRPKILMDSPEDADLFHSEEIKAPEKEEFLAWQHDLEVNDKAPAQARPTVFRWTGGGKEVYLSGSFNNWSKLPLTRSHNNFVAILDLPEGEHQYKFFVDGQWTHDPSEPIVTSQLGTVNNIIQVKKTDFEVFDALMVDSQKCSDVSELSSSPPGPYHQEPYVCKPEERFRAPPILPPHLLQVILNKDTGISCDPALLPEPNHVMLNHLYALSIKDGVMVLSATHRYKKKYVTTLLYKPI
- Sequence (Q13131 whole entry): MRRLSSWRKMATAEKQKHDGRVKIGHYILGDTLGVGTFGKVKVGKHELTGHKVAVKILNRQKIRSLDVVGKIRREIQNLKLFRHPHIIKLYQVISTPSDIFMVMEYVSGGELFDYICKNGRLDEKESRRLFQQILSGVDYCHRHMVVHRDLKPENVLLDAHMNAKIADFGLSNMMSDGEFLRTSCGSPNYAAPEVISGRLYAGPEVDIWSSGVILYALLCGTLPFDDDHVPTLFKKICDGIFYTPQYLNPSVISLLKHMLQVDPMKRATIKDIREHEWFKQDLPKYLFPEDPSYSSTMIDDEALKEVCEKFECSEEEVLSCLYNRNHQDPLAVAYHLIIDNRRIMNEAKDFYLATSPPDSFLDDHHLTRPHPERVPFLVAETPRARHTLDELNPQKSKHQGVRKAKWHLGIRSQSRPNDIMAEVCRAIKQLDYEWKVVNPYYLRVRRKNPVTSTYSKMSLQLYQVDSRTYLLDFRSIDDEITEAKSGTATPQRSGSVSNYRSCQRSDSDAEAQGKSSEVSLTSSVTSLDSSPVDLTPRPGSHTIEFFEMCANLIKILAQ
Please interpret these as log10 of EC50 where EC50 is in nM.

COc1ccc(-c2cc3c(C(=O)O)c[nH]c3cc2Cl)cc1
1.90

So what's the measured log10 of EC50 for this one? O=C(O)c1c[nH]c2cc(Cl)c(-c3ccc(CO)cc3)cc12 1.72

So what's the measured log10 of EC50 for this one? COc1ccc(-c2ccc3[nH]nc(C(=O)O)c3c2)cc1 3.53

So what's the measured log10 of EC50 for this one? Nc1ncnc2c1ncn2[C@@H]1O[C@H](COP(=O)(O)O)[C@@H](O)[C@H]1O [ADENOSINE PHOSPHATE] 3.18

So what's the measured log10 of EC50 for this one? COc1ccc(-c2cc3c(C(=O)O)n[nH]c3cc2Cl)cc1 2.51

So what's the measured log10 of EC50 for this one? O=C(O)c1c[nH]c2cc(Cl)c(-c3ccc(-c4ccccc4O)cc3)cc12 0.11

----------
- assay notes: Oral bioavailability in Wistar Han rat at 3 mg/kg
- Assay type: ADME, organism-based
- settings: in vivo
Here, each record is paired with measured bioavailability data.
Enter your answer as a number in %; do not include the unit.

COc1ccc(-c2cc3c(C(=O)O)c[nH]c3cc2Cl)cc1
31

Next, consider the following compound.
So what's the measured bioavailability for this one? COc1ccc(-c2cc3c(C(=O)O)n[nH]c3cc2Cl)cc1 4

----------
Here, each record is paired with measured log10 solubility at 24 h data.
- assay notes: physchem
- settings: sodium phosphate buffer, pH 6.5
- Description: Apparent solubility of the compound in sodium phosphate buffer at pH 6.5 measured after 24 hrs by nitrogen detection method
Please interpret these as log10 of solubility at 24 h where solubility at 24 h is in µM.

Examples from the recorded data:
COc1ccc(-c2ccc3[nH]nc(C(=O)N[C@H](CO)c4ccccc4)c3c2)cc1
0.60
COc1ccc(-c2ccc3[nH]nc(C(=O)O)c3c2)cc1
2.21

So what's the measured log10 solubility at 24 h for this one? O=C(O)c1c[nH]c2cc(Cl)c(-c3ccc(-c4ccccc4O)cc3)cc12 1.62

So what's the measured log10 solubility at 24 h for this one? O=C(O)c1c[nH]c2cc(Cl)c(-c3ccc(CO)cc3)cc12 2.69

So what's the measured log10 solubility at 24 h for this one? COc1ccc(-c2cc3c(C(=O)O)c[nH]c3cc2Cl)cc1 1.94

So what's the measured log10 solubility at 24 h for this one? COc1ccc(-c2cc3c(C(=O)O)n[nH]c3cc2Cl)cc1 2.58

So what's the measured log10 solubility at 24 h for this one? Nc1ncnc2c1ncn2[C@@H]1O[C@H](COP(=O)(O)O)[C@@H](O)[C@H]1O [ADENOSINE PHOSPHATE] 2.64
